Items are presented alongside their recorded pIC50.
# MEASUREMENT_TARGET: 11-beta-hydroxysteroid dehydrogenase type 2 (Homo sapiens, UniProt P80365)
# Sequence (P80365 whole entry): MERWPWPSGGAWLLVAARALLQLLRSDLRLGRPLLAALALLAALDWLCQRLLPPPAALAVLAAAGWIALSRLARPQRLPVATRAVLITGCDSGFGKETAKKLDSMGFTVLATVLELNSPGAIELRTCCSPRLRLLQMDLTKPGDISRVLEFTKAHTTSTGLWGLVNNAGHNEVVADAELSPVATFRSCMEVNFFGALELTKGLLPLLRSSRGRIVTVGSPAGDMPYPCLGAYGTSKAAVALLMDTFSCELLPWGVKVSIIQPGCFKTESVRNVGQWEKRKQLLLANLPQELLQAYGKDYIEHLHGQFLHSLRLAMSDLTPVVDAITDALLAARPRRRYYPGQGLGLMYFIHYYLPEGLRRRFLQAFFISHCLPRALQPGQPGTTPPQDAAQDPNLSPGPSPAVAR
# MEASUREMENT_DESCRIPTION: Inhibition of human recombinant 11beta-HSD2 expressed in HEK293 cells assessed as inhibition of [1,2,6,7-3H]-cortisol to [3H]cortisone preincubated for 10 mins before substrate addition by scintillation counting
Lab note: report pIC50 as minus log10 of the concentration in molar units, number only.

Field: example entries. Status: answers known.
>>> measured_number("CC(=O)[C@H]1CC[C@H]2[C@@H]3CCC4=CC(=O)CC[C@]4(C)[C@H]3[C@@H](NC[C@H](N)C(=O)O)C[C@]12C")
5.17
>>> measured_number("CC(=O)[C@H]1CC[C@H]2[C@@H]3CCC4=CC(=O)CC[C@]4(C)[C@H]3[C@@H](NCC(=O)OC(C)(C)C)C[C@]12C")
5.62
>>> measured_number("CC(=O)[C@H]1CC[C@H]2[C@@H]3CCC4=CC(=O)CC[C@]4(C)[C@H]3[C@@H](N)C[C@]12C")
5.66

IN: Give the measured pIC50 of "CC(=O)[C@H]1CC[C@H]2[C@@H]3CCC4=CC(=O)CC[C@]4(C)[C@H]3[C@@H](NC[C@H]3COC(C)(C)N3C(=O)OC(C)(C)C)C[C@]12C" .
OUT: 5.23

IN: Would you mind telling me what pIC50 value was observed for "CCOC(=O)/C(CN[C@H]1C[C@]2(C)[C@@H](C(C)=O)CC[C@H]2[C@@H]2CCC3=CC(=O)CC[C@]3(C)[C@H]21)=N\O" ?
OUT: 5.98

IN: So what does the record say about pIC50 for "CC(=O)[C@H]1CC[C@H]2[C@@H]3CCC4=CC(=O)CC[C@]4(C)[C@H]3[C@@H](NC[C@@H](CO)NC(=O)OC(C)(C)C)C[C@]12C" ?
OUT: 5.38

IN: // pIC50 lookup, key: "CC(=O)[C@H]1CC[C@H]2[C@@H]3CCC4=CC(=O)CC[C@]4(C)[C@H]3[C@@H](NCC(=O)O)C[C@]12C"
OUT: 5.57

---

# MEASUREMENT_TARGET: 11-beta-hydroxysteroid dehydrogenase 1 (Homo sapiens, UniProt P28845)
# Sequence (P28845 whole entry, looked up): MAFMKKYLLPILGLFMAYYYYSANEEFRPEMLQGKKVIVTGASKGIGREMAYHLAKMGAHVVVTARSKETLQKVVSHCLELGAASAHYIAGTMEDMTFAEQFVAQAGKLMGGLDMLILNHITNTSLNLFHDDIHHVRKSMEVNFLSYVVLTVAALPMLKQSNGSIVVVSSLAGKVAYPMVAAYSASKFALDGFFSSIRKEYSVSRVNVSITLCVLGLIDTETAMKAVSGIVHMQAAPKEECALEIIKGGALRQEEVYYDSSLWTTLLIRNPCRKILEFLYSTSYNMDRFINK
# MEASUREMENT_DESCRIPTION: Inhibition of human recombinant 11beta-HSD1 expressed in HEK293 cells assessed as inhibition of [1,2,-3H]-cortisone to [3H]cortisol preincubated at 10 uM for 10 mins before substrate addition by scintillation counting
# Type: cell-based
ATTRIBUTE_MEASURED: inhibition

Worked cases, inhibition given:
>>> result("CC(=O)[C@H]1CC[C@H]2[C@@H]3CCC4=CC(=O)CC[C@]4(C)[C@H]3[C@H](O)C[C@]12C")
"> 70%"
>>> result("CCOC(=O)/C(CN[C@H]1C[C@]2(C)[C@@H](C(C)=O)CC[C@H]2[C@@H]2CCC3=CC(=O)CC[C@]3(C)[C@H]21)=N\\O")
"> 70%"

Let's switch to this compound now.
IN: Look up inhibition: CC(=O)[C@H]1CC[C@H]2[C@@H]3CCC4=CC(=O)CC[C@]4(C)[C@H]3[C@@H](O)C[C@]12C [11BETA-HYDROXYPROGESTERONE]
OUT: > 70%

---

# MEASUREMENT_TARGET: Mineralocorticoid receptor (Homo sapiens, UniProt P08235)
# Sequence (P08235 whole entry): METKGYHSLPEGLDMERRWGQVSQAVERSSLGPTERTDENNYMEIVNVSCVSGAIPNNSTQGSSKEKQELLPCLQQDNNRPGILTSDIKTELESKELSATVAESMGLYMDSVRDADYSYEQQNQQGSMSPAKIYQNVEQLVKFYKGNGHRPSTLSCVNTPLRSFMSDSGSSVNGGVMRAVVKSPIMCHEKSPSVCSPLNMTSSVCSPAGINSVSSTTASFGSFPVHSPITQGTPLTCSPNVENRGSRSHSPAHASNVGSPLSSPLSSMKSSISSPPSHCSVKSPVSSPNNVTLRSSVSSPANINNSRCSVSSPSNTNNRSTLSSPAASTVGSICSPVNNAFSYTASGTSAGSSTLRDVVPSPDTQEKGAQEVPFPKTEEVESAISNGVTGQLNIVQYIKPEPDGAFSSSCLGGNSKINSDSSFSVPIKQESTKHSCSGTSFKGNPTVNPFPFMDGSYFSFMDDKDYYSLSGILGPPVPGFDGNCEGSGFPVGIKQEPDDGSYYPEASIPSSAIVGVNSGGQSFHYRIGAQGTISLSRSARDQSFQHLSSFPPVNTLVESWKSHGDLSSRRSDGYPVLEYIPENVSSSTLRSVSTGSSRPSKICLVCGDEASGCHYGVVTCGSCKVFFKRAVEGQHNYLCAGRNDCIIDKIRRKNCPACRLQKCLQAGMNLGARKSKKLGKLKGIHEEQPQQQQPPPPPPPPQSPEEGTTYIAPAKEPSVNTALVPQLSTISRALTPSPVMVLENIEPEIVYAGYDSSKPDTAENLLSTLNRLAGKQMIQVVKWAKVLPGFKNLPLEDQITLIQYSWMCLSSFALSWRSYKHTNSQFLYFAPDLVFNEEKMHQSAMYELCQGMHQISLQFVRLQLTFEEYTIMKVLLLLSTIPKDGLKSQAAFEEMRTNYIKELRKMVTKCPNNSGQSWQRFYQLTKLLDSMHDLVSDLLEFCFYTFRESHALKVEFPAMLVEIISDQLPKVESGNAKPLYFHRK
# MEASUREMENT_DESCRIPTION: Transactivation of human recombinant mineralocorticoid receptor expressed in HEK-293 cells after 24 hrs […]
# Type: cell-based, HEK293
ATTRIBUTE_MEASURED: pEC50
Just so you know, pEC50 here is -log10 of the concentration in molar units; reply with that number alone.

>>> measured_number("CC(=O)[C@H]1CC[C@H]2[C@@H]3CCC4=CC(=O)CC[C@]4(C)[C@H]3[C@@H](O)C[C@]12C [11BETA-HYDROXYPROGESTERONE]")
4.85

IN: Quick one: pEC50 for "CC(=O)[C@H]1CC[C@H]2[C@@H]3CCC4=CC(=O)CC[C@]4(C)[C@H]3[C@@H](NC[C@@H](N)C(=O)O)C[C@]12C" ?
OUT: 5.39

The reported measurements were obtained from ChEMBL document CHEMBL2440032.
